The origin of these recorded values is patent US20240239875A1.

study.system: T1, HKU1 spike protein (HCoV-HKU1)
T1 chain: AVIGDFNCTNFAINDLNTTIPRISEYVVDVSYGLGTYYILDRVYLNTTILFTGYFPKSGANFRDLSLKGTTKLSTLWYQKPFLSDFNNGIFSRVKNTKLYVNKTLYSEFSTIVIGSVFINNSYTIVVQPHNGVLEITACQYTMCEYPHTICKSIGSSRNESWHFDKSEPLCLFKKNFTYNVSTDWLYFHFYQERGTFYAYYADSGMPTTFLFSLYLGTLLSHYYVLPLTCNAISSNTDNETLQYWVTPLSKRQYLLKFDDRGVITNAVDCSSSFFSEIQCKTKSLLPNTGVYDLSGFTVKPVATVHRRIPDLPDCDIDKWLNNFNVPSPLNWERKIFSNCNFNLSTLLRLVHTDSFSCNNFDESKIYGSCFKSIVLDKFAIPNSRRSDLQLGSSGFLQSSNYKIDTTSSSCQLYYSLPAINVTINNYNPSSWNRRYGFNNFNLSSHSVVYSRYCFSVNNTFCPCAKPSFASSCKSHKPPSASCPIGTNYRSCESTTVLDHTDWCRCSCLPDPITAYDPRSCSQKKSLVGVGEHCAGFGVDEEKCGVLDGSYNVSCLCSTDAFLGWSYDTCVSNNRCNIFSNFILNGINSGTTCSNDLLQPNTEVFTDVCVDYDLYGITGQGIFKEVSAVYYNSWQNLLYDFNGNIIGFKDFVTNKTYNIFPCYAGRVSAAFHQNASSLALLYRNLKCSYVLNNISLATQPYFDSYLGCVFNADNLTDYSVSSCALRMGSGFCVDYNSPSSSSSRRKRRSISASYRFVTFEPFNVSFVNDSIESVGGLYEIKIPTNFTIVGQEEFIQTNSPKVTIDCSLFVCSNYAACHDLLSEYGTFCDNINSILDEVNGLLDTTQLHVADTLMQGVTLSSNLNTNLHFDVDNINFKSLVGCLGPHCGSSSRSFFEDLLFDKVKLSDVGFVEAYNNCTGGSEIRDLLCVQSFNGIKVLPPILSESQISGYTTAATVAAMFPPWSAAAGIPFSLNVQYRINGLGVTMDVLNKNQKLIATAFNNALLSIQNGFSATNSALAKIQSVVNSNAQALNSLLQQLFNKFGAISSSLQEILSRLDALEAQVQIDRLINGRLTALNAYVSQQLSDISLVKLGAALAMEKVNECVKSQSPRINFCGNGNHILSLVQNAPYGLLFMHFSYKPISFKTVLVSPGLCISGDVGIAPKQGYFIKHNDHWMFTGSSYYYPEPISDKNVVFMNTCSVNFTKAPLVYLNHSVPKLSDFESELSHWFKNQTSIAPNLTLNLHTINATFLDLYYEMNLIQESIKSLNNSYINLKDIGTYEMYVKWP
protocol: ELISA
reported.endpoint: pEC50
# reply with the number alone; pEC50 is -log10 of concentration in mol/L

Exam item: Returns the measured pEC50 for the input binder. Input: 4-N22-A (antibody, V domains shown) VH: QVQLQQPGTELVKPGASVKLSCKASGYTFTNYWMYWVKQRPGQGLDWIGNINPSNGGTNYNEKFKSKATLTVDKSSSTAYMQLSSLTSEDSAVYYCARETGNYWGQGTTLTVSS VL: DILMTQSPSSMSVSLGDTVSISCHASQGISSNIGWLQQKPGKSFKGLIYHGTNLEDGVPSRFSGSGSGADYSLTISSLESEDFADYYCVQYAQFPYTFGGGTKLEIK
Marked response: 7.80
